- system_name: T1, soluble human CD3 epsilon chain (human, UniProt P07766 23-126)
- T1 construct: also called CD3ε
- assay_remarks: SPR
Can you tell me pKd for the items I'm about to list?
Keep it numeric: pKd is minus log10 of the concentration in mol/L.

**Q:** Entry under review: TR01H046-E22Hh/none-Hi-Kn010G3/L0000-k0 (antibody, V domains shown, one-arm) VH: QVQLVESGGGLVQPGRSLRLSCSASGFTFSNAWMHWVRQAPGKGLEWVAQIKDKSQNYATYYAESVKGRFTISRADSKNSIYLQMNSLKTEDTAVYYCRYVHYSASYGVDYWGQGTTVTVSS VL: DIVMTQSPLSLPVTPGEPASISCRSSQSLVHSNRNTYLHWYQQKPGQAPRLLIYKVSNRFSGVPDRFSGSGSGTDFTLKISRVEAEDVGVYYCGQGTQVPYTFGQGTKLEIKR . Reported pKd?
**A:** 7.37

**Q:** And what about the binder TR01H026-E22Hh/none-Hi-Kn010G3/L0000-k0 (antibody, V domains shown, one-arm) VH: QVQLVESGGGLVQPGGSLRLSCAASGFTFSNAWMHWVRQAPGKGLEWVAQIKSKSQNYATYYAESVKGRFTISRADSKNSIYLQMNSLKTEDTAVYYCRYVHYSASYGVDIWGQGTTVTVSS VL: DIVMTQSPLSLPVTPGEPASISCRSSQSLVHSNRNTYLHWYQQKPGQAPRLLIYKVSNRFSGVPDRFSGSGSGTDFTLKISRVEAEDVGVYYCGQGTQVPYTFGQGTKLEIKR ?
**A:** 7.29

**Q:** And what about the binder TR01H042-E22Hh/none-Hi-Kn010G3/L0000-k0 (antibody, V domains shown, one-arm) VH: QVQLVESGGGVVQPGGSLRLSCAASGFTFSNAWMHWVRQAPGKGLEWVAQIKDKSQNYATYYAESVKGRFTISRADSKNSIYLQMNSLKTEDTAVYYCRYVHYSASYGVDAWGQGTTVTVSS VL: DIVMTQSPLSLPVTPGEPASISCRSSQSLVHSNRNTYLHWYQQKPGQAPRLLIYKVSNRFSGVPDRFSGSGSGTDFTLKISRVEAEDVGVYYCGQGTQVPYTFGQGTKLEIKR ?
**A:** 7.35

**Q:** And what about the binder TR01H113-E2702GsKsc/none-Hi-E2704sE/L0011-k0 (antibody, human IgG4 S228P, kappa, N297A, V domains shown, one-arm) VH: QVQLVESGGGVVQPGGSLRLSCAASGFTFSNAWMHWVRQAPGKGLEWVAQIKDKSQNYATYVAESVKGRFTISRADSKNSIYLQMNSLKTEDTAVYYCRYVHYAAGYGVDIWGQGTTVTVSS VL: DIVMTQSPLSLPVTPGEPASISCRSSQPLVHSNRNTYLHWYQQKPGQAPRLLIYKVSNRFSGVPDRFSGSGSGTDFTLKISRVEAEDVGVYYCGQGTQVPYTFGQGTKLEIKR ?
**A:** 8.29
